Values compiled from patent US20260250318A1.

System: brain
Test: NGS fold enrichment of synthetic library (passage 3) in BALB/c mice, first cross-species screen
Format: in vivo
Details: synthetic library passage 3, intravenous, RNA NGS, brain of BALB/c mice, relative to wild-type AAV9
Simple rule here: Fold enrichment over AAV9 in the brain of Mice (BALB/c) less than 0.8 fold is true (1), otherwise false (0).

Data request: Here's an entry: `GSGYSMSQAQNQQT` . Is its Fold enrichment over AAV9 in the brain of Mice (BALB/c) below 0.8 fold?
Data returned: true (1)

Data request: Here's an entry: `GSGQNQQTTASSHT` . Is its Fold enrichment over AAV9 in the brain of Mice (BALB/c) below 0.8 fold?
Data returned: true (1)

Data request: Here's an entry: `GSGTVHAATQNQQT` . Is its Fold enrichment over AAV9 in the brain of Mice (BALB/c) below 0.8 fold?
Data returned: true (1)

Data request: Here's an entry: `GSGQNQQLAITLGT` . Is its Fold enrichment over AAV9 in the brain of Mice (BALB/c) below 0.8 fold?
Data returned: true (1)

Data request: Here's an entry: `GSGYTSLFLQNQQT` . Is its Fold enrichment over AAV9 in the brain of Mice (BALB/c) below 0.8 fold?
Data returned: false (0)

Data request: Here's an entry: `GVAGSLVSGQNQQT` . Is its Fold enrichment over AAV9 in the brain of Mice (BALB/c) below 0.8 fold?
Data returned: false (0)

Data request: Here's an entry: `GSTGIVSSGQNQQT` . Is its Fold enrichment over AAV9 in the brain of Mice (BALB/c) below 0.8 fold?
Data returned: false (0)

Data request: Here's an entry: `GSGEAARYEQNQQT` . Is its Fold enrichment over AAV9 in the brain of Mice (BALB/c) below 0.8 fold?
Data returned: true (1)

Data request: Here's an entry: `GSGQSHMATLNQQT` . Is its Fold enrichment over AAV9 in the brain of Mice (BALB/c) below 0.8 fold?
Data returned: true (1)
